- SYSTEM: D(1B) dopamine receptor (Homo sapiens)
- Sequence (P21918 whole entry): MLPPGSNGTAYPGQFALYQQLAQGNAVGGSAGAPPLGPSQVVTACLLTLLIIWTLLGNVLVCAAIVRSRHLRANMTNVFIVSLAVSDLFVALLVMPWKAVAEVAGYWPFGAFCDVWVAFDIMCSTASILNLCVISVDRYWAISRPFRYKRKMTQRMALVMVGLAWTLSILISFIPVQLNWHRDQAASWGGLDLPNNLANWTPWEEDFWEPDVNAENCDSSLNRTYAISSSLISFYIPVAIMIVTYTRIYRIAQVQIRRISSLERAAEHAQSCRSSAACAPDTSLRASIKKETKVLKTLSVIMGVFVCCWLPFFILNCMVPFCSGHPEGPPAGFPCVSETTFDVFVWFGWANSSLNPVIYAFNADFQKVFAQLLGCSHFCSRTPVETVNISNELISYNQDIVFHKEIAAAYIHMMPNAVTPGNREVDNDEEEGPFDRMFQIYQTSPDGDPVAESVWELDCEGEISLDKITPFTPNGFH
- EXPERIMENT: Displacement of [3H]radioligand from human recombinant dopamine D5 receptor expressed in HEK293 cells by microplate scintillation counting
pKi: −log10 of the molar value.
Here, each record is paired with measured pKi data.

# MOLECULE, SYSTEM, CENSORING OPERATOR, pKi
data = [
    ("CN1CCc2ccccc2Cc2c[nH]c3cccc(c23)C1", "D(1B) dopamine receptor (Homo sapiens)", "<", 5.00),
    ("CN1CCc2ccccc2Cc2c[nH]c3cccc(c23)CC1", "D(1B) dopamine receptor (Homo sapiens)", "=", 8.60),
    ("CN1CCc2ccccc2Cc2c([nH]c3ccccc23)CC1", "D(1B) dopamine receptor (Homo sapiens)", "=", 7.99),
    ("c1ccc2c(c1)CCN1CCc3cccc4[nH]cc(c34)C21 (stereo not given)", "D(1B) dopamine receptor (Homo sapiens)", "=", 5.82),
    ("c1ccc2c(c1)CCN1CCc3[nH]c4ccccc4c3C21 (stereo not given)", "D(1B) dopamine receptor (Homo sapiens)", "<", 5.00),
]
